Reported pEC50 values for a set of compounds
# Tested on: Leishmania major
# test-details: Antileishmanial activity against luciferase-expressing Leishmania major amastigotes infected in mouse RAW264.7 cells after 96 hrs by luminescence assay
# Assay type: functional, cell-based
# protocol-conditions: RAW264.7, 96 h
pEC50: −log10 of the molar value.

Example entries and their recorded answers appear below.
[[record]]
compound_structure = "Cc1cnnc(Nc2ccnc3ccc(-c4ccc(S(=O)(=O)N5CCOCC5)cc4)cc23)c1"
result = "< 4.70"

[[record]]
compound_structure = "O=S(=O)(c1ccc(-c2ccc3nccc(Nc4nnc(C5CC5)s4)c3c2)cc1)N1CCOCC1"
result = 5.70

[[record]]
compound_structure = "O=S(=O)(c1ccc(-c2ccc3nccc(Nc4ccccn4)c3c2)cc1)N1CCOCC1"
result = "< 4.70"

[[record]]
compound_structure = "Cc1cnc(Nc2ccnc3ccc(-c4ccc(S(=O)(=O)N5CCOCC5)cc4)cc23)s1"
result = 5.92


// fetch pEC50 given entry O=S(=O)(c1ccc(-c2ccc3nccc(Nc4ccncn4)c3c2)cc1)N1CCOCC1
< 4.70

// fetch pEC50 given entry O=S(=O)(c1ccc(-c2ccc3nccc(Nc4cccnc4)c3c2)cc1)N1CCOCC1
< 4.70

// fetch pEC50 given entry O=S(=O)(c1ccc(-c2ccc3nccc(Nc4ccccc4)c3c2)cc1)N1CCOCC1
5.15

----------
# test-details: Fraction unbound in human plasma
# Format: ADME, cell-free
measurement-label: Fu

// fetch Fu given entry O=S(=O)(c1ccc(-c2ccc3nccc(Nc4ccc(OCc5cccc(F)c5)cc4)c3c2)cc1)N1CCOCC1
< 0.1%

----------
# Tested on: Leishmania major
# test-details: Antileishmanial activity against luciferase-expressing Leishmania major amastigotes infected in mouse RAW264.7 cells after 96 hrs by luminescence assay
# Assay type: functional, cell-based
# protocol-conditions: RAW264.7, 96 h
Reported EC50 values for a set of compounds
All answers are understood in nM, so give the number only.

[[record]]
compound_structure = "O=S(=O)(c1ccc(-c2ccc3nccc(Nc4ccc(OCc5cccc(F)c5)cc4)c3c2)cc1)N1CCOCC1"
numeric_readout = 1200

[[record]]
compound_structure = "CCc1nnc(Nc2ccnc3ccc(-c4ccc(S(=O)(=O)N5CCOCC5)cc4)cc23)s1"
numeric_readout = 3100


Shifting focus to the compound that follows.
// fetch EC50 given entry O=S(=O)(c1ccc(-c2ccc3nccc(Nc4ncc(Cl)cn4)c3c2)cc1)N1CCOCC1
370

----------
# test-details: Cytotoxicity against […] cells assessed as reduction in cell viability after 96 hrs by presto blue assay
# Assay type: toxicity
# protocol-conditions: read-out: TC50
measurement-label: CC50 at 96 h

Example entries and their recorded answers appear below.
[[record]]
compound_structure = "N#Cc1cnc(Nc2ccnc3ccc(-c4ccc(S(=O)(=O)N5CCOCC5)cc4)cc23)cn1"
result = "> 20 µM"

[[record]]
compound_structure = "O=S(=O)(c1ccc(-c2ccc3nccc(Nc4nnc(C5CC5)s4)c3c2)cc1)N1CCOCC1"
result = "> 20 µM"

[[record]]
compound_structure = "Cc1cc(Nc2ccnc3ccc(-c4ccc(S(=O)(=O)N5CCOCC5)cc4)cc23)sn1"
result = "> 20 µM"


// fetch CC50 at 96 h given entry CCc1nnc(Nc2ccnc3ccc(-c4ccc(S(=O)(=O)N5CCOCC5)cc4)cc23)s1
> 20 µM

// fetch CC50 at 96 h given entry O=S(=O)(c1ccc(-c2ccc3nccc(Nc4ccnnc4)c3c2)cc1)N1CCOCC1
> 20 µM

----------
# System: Leishmania major
# test-details: Antileishmanial activity against luciferase-expressing Leishmania major amastigotes infected in mouse RAW264.7 cells after 96 hrs by luminescence assay
# Format: functional, cell-based
# protocol-conditions: RAW264.7, 96 h
measurement-label: pEC50
Note on pEC50: it is the negative log10 of concentration, concentration in mol/L.

Example entries and their recorded answers appear below.
[[record]]
compound_structure = "O=S(=O)(c1ccc(-c2ccc3nccc(Nc4cncs4)c3c2)cc1)N1CCOCC1"
numeric_readout = 5.27

[[record]]
compound_structure = "COc1ccc(Nc2ccnc3ccc(-c4ccc(S(=O)(=O)N5CCOCC5)cc4)cc23)cc1C"
numeric_readout = 5.24

[[record]]
compound_structure = "Cc1cc(Nc2ccnc3ccc(-c4ccc(S(=O)(=O)N5CCOCC5)cc4)cc23)sn1"
numeric_readout = 5.35

[[record]]
compound_structure = "COc1ccc(Nc2ccnc3ccc(-c4ccc(S(=O)(=O)N5CCOCC5)cc4)cc23)cc1Cl"
numeric_readout = 5.28


Name the recorded pEC50 of O=[N+]([O-])c1ccc(Nc2ccnc3ccc(-c4ccc(S(=O)(=O)N5CCOCC5)cc4)cc23)cn1 , assay system Leishmania major.
5.24

----------
# Test system: Leishmania major
# test-details: Antileishmanial activity against luciferase-expressing Leishmania major amastigotes infected in mouse RAW264.7 cells after 96 hrs by luminescence assay
# Assay type: functional, cell-based
# protocol-conditions: RAW264.7, 96 h
pEC50: −log10 of the molar value.
measurement-label: pEC50

[[record]]
compound_structure = "Cc1cc(Nc2ccnc3ccc(-c4ccc(S(=O)(=O)N5CCOCC5)cc4)cc23)on1"
measurement_target = "Leishmania major"
result = "< 4.70"

[[record]]
compound_structure = "CCOCCOc1ccnc2ccc(-c3ccc(S(=O)(=O)N4CCOCC4)cc3)cc12"
measurement_target = "Leishmania major"
result = "< 4.70"


Shifting focus to the molecule that follows.
// fetch pEC50 given entry O=S(=O)(c1ccc(-c2ccc3ncccc3c2)cc1)N1CCOCC1
< 4.70
